The values you see were collected from patent US11214565B2.

biological target: LRRK2 G2019S enzyme (Homo sapiens (Human), UniProt Q5S007, G2019S); test: LRRK2 G2019S TR-FRET biochemical kinase assay (LRRKtide substrate); conditions: Table A-2; 5 nM LRRK2, 134 μM ATP, 60 minute reaction, 23° C.
Sequence (Q5S007 whole entry G2019S): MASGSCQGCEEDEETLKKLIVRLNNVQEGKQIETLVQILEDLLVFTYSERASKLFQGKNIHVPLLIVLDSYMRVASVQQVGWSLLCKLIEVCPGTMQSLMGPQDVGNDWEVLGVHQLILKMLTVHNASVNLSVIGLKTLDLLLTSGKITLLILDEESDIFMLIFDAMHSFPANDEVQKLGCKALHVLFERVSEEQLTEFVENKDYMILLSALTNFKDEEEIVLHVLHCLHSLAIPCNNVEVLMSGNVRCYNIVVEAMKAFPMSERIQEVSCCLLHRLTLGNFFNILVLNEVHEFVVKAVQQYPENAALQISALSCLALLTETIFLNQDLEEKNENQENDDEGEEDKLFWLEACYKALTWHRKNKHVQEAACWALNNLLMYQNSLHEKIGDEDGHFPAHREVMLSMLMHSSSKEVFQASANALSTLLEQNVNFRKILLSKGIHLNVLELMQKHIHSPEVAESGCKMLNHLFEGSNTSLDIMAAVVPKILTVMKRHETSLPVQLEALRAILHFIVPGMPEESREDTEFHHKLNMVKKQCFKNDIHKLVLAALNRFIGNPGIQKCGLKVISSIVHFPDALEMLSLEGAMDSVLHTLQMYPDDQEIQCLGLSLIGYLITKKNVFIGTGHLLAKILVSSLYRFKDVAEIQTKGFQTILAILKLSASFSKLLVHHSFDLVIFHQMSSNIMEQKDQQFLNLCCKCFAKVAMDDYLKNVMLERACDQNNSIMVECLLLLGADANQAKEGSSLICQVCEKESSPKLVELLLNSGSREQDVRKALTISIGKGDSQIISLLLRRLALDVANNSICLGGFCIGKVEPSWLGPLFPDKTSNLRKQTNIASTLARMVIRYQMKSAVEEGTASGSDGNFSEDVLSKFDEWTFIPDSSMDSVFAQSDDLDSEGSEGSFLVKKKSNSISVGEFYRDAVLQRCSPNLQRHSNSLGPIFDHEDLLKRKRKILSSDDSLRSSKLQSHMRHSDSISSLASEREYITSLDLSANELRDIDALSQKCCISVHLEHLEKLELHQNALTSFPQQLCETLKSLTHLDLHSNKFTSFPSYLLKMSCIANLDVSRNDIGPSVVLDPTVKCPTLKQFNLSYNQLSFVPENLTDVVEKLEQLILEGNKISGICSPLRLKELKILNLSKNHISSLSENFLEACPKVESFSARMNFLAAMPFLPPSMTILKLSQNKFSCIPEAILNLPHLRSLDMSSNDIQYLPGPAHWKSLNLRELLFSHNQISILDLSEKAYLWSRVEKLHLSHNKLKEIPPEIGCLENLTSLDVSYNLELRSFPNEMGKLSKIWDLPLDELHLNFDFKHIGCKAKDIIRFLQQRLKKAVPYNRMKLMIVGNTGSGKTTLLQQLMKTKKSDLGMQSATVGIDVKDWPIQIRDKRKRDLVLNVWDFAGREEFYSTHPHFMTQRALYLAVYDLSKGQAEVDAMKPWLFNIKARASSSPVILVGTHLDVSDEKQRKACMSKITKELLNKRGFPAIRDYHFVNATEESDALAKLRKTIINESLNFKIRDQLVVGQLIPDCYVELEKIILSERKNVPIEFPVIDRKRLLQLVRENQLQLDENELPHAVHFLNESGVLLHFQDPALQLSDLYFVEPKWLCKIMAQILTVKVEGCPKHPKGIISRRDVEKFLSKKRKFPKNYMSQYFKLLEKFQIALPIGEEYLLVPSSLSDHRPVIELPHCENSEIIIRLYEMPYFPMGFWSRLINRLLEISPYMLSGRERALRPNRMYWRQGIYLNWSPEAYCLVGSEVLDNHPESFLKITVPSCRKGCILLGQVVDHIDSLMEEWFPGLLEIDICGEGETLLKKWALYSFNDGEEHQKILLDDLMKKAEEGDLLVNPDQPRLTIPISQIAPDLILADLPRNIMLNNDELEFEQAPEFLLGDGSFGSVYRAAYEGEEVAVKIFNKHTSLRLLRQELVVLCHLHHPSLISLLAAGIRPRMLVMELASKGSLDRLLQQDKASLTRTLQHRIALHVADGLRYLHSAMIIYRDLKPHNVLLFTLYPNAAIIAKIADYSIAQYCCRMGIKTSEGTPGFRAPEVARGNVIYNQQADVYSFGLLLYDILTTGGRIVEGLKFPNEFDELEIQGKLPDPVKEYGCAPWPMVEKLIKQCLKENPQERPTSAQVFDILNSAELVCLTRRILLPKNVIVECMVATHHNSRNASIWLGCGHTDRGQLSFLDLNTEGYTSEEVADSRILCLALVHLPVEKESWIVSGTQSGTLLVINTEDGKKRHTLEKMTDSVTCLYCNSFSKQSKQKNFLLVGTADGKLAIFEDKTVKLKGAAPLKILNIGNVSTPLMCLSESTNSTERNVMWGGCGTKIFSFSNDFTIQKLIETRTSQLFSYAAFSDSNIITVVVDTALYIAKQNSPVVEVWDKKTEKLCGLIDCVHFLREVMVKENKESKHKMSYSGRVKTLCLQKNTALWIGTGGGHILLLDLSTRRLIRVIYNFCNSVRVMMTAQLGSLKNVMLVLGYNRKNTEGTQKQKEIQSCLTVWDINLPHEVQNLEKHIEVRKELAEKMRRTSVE
pIC50: −log10 of the molar value.
pIC50 values by entry

IN: # query: pIC50 of entry `Cc1nn(C(C)(C)C#N)cc1Nc1ncc(C(F)(F)F)c(C2CCCC2)n1`
OUT: < 7.22

IN: Given the molecule `CC(=O)N1CCC(n2ncc(Nc3ncc(C(F)(F)F)c(C4CC4)n3)c2C)CC1` , what is its reported pIC50?
OUT: > 7.52

IN: Reported pIC50, molecule `Cc1nn([C@@](C)(C(N)=O)C(F)F)cc1Nc1ncc(C(F)(F)F)c(C2CC2)n1` : ____
OUT: > 7.52

IN: Quick check: pIC50 of Cc1nn(C(C)(C)C#N)cc1Nc1ncc(C(F)(F)F)c([C@H]2C[C@@H]2F)n1 (single isomer, unassigned) ?
OUT: < 7.22

IN: Reported pIC50, molecule `Cc1nn(C(C)(C)c2cn(C)cn2)cc1Nc1ncc(C(F)(F)F)c(C2CC2)n1` : ____
OUT: > 7.52

IN: State the recorded pIC50 for this entry: `Cc1c(Nc2ncc(C(F)(F)F)c(C3CC3)n2)cnn1CC(C)(C)O`
OUT: 7.22 to 7.52
